- Test Target: Voltage-gated potassium channel subunit beta-2 (Rattus norvegicus) (UniProt P62483)
- Sequence (P62483 whole entry, looked up): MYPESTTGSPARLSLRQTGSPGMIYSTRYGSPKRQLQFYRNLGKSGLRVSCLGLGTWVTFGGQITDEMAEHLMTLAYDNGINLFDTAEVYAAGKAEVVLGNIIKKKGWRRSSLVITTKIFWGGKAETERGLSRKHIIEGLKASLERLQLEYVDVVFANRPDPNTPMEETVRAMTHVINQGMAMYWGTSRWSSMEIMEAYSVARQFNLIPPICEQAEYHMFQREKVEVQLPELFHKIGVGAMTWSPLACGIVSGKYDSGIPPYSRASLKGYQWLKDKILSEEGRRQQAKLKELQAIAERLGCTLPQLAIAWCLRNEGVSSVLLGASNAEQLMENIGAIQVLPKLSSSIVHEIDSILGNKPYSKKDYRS
- Procedure Summary: KvBeta positive modulators, primary screen, biochemical, NADPH fluorescence (AID 623);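 further: fluorescence intensity change per second fitted from 20 to 320 s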
- Measurement Setup: Recombinant KvBeta, NADPH fluorescence decrease slope, 10 min; at 10 µM; stronger effect = lower value
Recorded Metric: NADPH fluorescence slope
Please give only the number in your answer, with no unit.

Compound	NADPH fluorescence slope
Cn1c(=O)c2c(nc(Oc3ccc4c(c3)OCO4)n2Cc2ccc(Br)cc2)n(C)c1=O	-3.8e-05
CCCOc1cccc(C(=O)N(Cc2ccco2)C2CCS(=O)(=O)C2)c1 (stereo not given)	-3.3e-05
O=c1c2sc3nc(N4CCOCC4)c4c(c3c2ncn1Cc1ccco1)CCCC4	-1.9e-05
CN(C)S(=O)(=O)c1ccc(/C(O)=C2/C(=O)C(=O)N(CCN3CCCCC3)C2c2cccnc2)cc1 (stereo not given)	2e-05
CCOC(=O)Cn1c(CCC(=O)O)ccc1-c1ccc(F)cc1	-2.7e-05
CC(=O)c1ccc(NS(=O)(=O)c2ccccc2)cc1	3.9e-05

Query :: GET /values?readout=NADPH fluorescence slope&item= CCOC(=O)C1(c2ccccc2)NC(c2ccc(N(C)C)cc2)C2C(=O)N(C)C(=O)C21 (stereo not given)
Result :: -6.3e-05

Query :: What do we get for COC(=O)c1cn(C(=O)c2ccc(Br)o2)c2ccccc12 ?
Result :: -2.6e-05

Query :: What do we get for CCOC(=O)c1sc(=NC(=O)c2ccc(OC)c(OC)c2)n(C)c1C ?
Result :: -2.7e-05

Query :: What do we get for O=c1oc2c3c4c(cc2s1)CCCN4CCC3 ?
Result :: -6e-05

Just for reference, PubChem BioAssay is where these values come from.
